Listed here: items and their measured koff.
# system name: human MMP-9 (Homo sapiens, UniProt P14780)
# Sequence (P14780 107-707 limits assumed): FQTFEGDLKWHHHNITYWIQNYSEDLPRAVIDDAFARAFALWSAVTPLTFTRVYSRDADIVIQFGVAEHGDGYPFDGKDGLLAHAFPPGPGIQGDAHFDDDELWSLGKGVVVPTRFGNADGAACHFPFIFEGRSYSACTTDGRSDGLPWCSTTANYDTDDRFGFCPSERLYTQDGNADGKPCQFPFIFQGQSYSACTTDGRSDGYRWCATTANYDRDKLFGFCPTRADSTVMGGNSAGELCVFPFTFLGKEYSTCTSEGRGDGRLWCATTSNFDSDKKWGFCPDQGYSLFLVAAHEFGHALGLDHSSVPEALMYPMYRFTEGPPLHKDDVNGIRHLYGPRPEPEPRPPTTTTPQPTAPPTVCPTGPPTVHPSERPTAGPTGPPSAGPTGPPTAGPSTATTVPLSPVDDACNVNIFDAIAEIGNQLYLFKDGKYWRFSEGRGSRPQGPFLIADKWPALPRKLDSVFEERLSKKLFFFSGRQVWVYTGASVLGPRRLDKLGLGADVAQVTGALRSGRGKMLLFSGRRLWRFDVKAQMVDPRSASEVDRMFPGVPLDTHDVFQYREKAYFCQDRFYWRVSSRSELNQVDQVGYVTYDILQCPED
# measurement notes: biochemical
# study conditions: read-out: koff, MMP-9

{"molecule": "NCC(=O)Nc1ccc(Oc2ccc(S(=O)(=O)CC3CS3)cc2)cc1 (stereo not shown) [Compound 11a]", "koff [s⁻¹]": 0.00065}
{"molecule": "NC(CCC(=O)O)C(=O)Nc1ccc(Oc2ccc(S(=O)(=O)CC3CS3)cc2)cc1 (stereo not shown) [Compound 11c]", "koff [s⁻¹]": 0.0012}
{"molecule": "Nc1ccc(Oc2ccc(S(=O)(=O)CC3CS3)cc2)cc1O (stereo not shown)", "koff [s⁻¹]": 0.00053}
{"molecule": "NCCCCC(N)C(=O)Nc1ccc(Oc2ccc(S(=O)(=O)CC3CS3)cc2)cc1 (stereo not shown) [Compound 11b]", "koff [s⁻¹]": 0.00042}
